These entries and their values trace back to patent US9845291B2.

target desc: estrogen receptor alpha (ESR1) (Homo sapiens)
Sequence (P03372 whole entry): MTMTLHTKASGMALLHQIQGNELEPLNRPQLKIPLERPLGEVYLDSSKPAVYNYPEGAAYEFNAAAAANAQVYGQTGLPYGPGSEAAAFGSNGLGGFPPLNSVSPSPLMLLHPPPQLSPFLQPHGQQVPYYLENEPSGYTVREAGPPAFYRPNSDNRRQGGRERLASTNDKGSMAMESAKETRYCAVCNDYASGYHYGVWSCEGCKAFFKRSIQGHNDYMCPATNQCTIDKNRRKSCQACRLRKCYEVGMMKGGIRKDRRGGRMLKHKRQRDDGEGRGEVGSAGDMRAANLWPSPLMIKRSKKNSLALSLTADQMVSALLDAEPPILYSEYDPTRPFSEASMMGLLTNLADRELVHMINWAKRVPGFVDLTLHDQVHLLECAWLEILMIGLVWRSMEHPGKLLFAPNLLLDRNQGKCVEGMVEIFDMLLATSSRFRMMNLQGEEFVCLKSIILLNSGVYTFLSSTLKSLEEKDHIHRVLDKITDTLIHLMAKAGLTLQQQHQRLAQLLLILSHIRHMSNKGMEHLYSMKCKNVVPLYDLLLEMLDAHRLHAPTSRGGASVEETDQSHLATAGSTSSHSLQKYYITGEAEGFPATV
run description: cell-based
// reported pEC50 for each item listed
pEC50 is defined as minus the log10 of a concentration measured in mol/L.

| compound | metric name | observed |
| --- | --- | --- |
| C[C@@H](COc1ccc([C@@H]2Oc3ccc(O)cc3S[C@@H]2c2ccc(O)cc2)cc1)N1CC[C@@H](CF)C1 (mixture of isomers) [Example 30] | pEC50 | 8.96 |

Exam item: Indicate its recorded pEC50; the compound in question is CC/C(=C(/c1ccc(OCCN2CC(CF)C2)cc1)c1ccc2[nH]ncc2c1)c1ccccc1 [Example 25]
Marked response: 8.82

Exam item: Return pEC50 (reported value) for this compound: Cc1c(-c2ccc(O)c(Cl)c2)n(Cc2ccc(OCCN3CC(CF)C3)cc2)c2ccc(O)cc12 [Example 46]
Marked response: 10.52

Exam item: Given CC/C(=C(/c1ccc(OCCN2CC(CF)C2)cc1)c1ccc2[nH]ncc2c1)c1ccc(F)cc1Cl [Example 82] , respond with its pEC50.
Marked response: 10.65

Exam item: Return pEC50 for the following compound: COc1ccc(/C(=C(\c2ccc(OCCN3CC[C@@H](CF)C3)cc2)c2ccc3[nH]nc(F)c3c2)C2CCC2)c(Cl)c1 [Example 26]
Marked response: 9.22

Exam item: Output pEC50 of C[C@@H](COc1ccc(Oc2c(-c3ccc(S(C)(=O)=O)cc3)ccc3cc(O)ccc23)cc1)N1CC[C@@H](CF)C1 [Example 66]
Marked response: 11.22

Exam item: Could you please provide reported pEC50 for Oc1ccc2c(c1)C1=C(c3cc(O)ccc3OCC1)[C@H](c1ccc(OCCN3CC(CF)C3)cc1)O2 [Example 74] ? Thanks!
Marked response: 9.72

Exam item: Please give the documented pEC50 of Cc1c(-c2ccc(O)cc2)n(Cc2ccc(OCCN3CC(CF)C3)cc2)c2cc(F)c(O)cc12 [Example 49]
Marked response: 9.73

Exam item: Consider the compound Cc1c(-c2ccc(F)cc2)n(Cc2ccc(OCCN3CC(CF)C3)cc2)c2ccc(O)cc12 [Example 3] and give its recorded pEC50.
Marked response: 8.26

---

target desc: UniProt:P03372
run description: cell-based
assay context: MCF7 breast cancer cells, 4 hours; plateau of the maximal effect; DMSO and Fulvestrant define 0% and 100% changes in ESR1
metric name: ER-alpha MCF7 HCS Sinf (%)
Give the value, in units of %, as a plain number.

Example entries begin here.
| compound | unit tag | ER-alpha MCF7 HCS Sinf |
| --- | --- | --- |
| O=C(c1ccc(OCCN2CC(CF)C2)cc1)c1c(-c2ccc(F)c(Cl)c2)sc2cc(O)ccc12 [Example 37] | % | −97 |
| COc1ccc(-c2sc3cc(O)ccc3c2Oc2ccc(OC[C@H](C)N3CC[C@@H](CF)C3)cc2)cc1 [Example 12] | % | −50 |
| Cc1cc(-c2c(C)c3cc(O)ccc3n2Cc2ccc(OC[C@H](C)N3CC[C@@H](CF)C3)cc2)ccc1O [Example 43] | % | −96.0 |
| Cc1c(-c2ccc(O)cc2)n(Cc2ccc(OCCN3CC(CF)C3)cc2)c2ccc(O)c(F)c12 [Example 48] | % | −92.8 |
| CC/C(=C(\c1ccc(O)cc1)c1ccc(OCCN2CC(CF)C2)cc1)c1ccccc1 [Example 23] | % | −95 |

Exam item: Give a short answer stating reported ER-alpha MCF7 HCS Sinf for Oc1cccc([C@H]2Sc3c(ccc(O)c3F)O[C@H]2c2ccc(OCCN3CC(CF)C3)cc2)c1 [Example 58] .
Marked response: −99.8

Exam item: Look up ER-alpha MCF7 HCS Sinf of Cc1c(-c2ccc(O)cc2Cl)n(Cc2ccc(OCCN3CC[C@@H](CF)C3)cc2)c2ccc(O)cc12 [Example 55] and report it.
Marked response: −98.7

Exam item: Return the recorded ER-alpha MCF7 HCS Sinf value; entry: Oc1ccc(-c2snc(-c3ccccc3Cl)c2-c2ccc(OCCN3CC(CF)C3)c(F)c2)cc1 [Example 16]
Marked response: −99.2

Exam item: Supply measured ER-alpha MCF7 HCS Sinf of Oc1ccc2c(c1)O[C@@H](c1ccc(OCCN3CC(CF)C3)cc1)C1=C2CCOc2ccc(O)cc21 [Example 78] in your reply.
Marked response: −90.0

Exam item: // Input: Oc1ccc(-c2onc(-c3ccccc3Cl)c2-c2ccc(OCCN3CC[C@@H](CF)C3)cc2)cc1 [Example 15] . Output its ER-alpha MCF7 HCS Sinf only.
Marked response: −84

Exam item: Identify ER-alpha MCF7 HCS Sinf associated with the compound Oc1ccc(C(=C2CCCCC2)c2ccc(OCCN3CC(CF)C3)cc2)cc1 [Example 18]
Marked response: −89

Exam item: Name the recorded ER-alpha MCF7 HCS Sinf of the item Cc1c(-c2ccc(O)cc2)n(Cc2ccc(OCCN3CC(CF)C3)cc2)c2ccc(O)cc12 [Example 1] in your answer.
Marked response: −95
